Biological target: monkey DLL3 on CHO-K1-cyno DLL3 cells (cynomolgus monkey)
Sequence (chain, as listed by the source limits assumed): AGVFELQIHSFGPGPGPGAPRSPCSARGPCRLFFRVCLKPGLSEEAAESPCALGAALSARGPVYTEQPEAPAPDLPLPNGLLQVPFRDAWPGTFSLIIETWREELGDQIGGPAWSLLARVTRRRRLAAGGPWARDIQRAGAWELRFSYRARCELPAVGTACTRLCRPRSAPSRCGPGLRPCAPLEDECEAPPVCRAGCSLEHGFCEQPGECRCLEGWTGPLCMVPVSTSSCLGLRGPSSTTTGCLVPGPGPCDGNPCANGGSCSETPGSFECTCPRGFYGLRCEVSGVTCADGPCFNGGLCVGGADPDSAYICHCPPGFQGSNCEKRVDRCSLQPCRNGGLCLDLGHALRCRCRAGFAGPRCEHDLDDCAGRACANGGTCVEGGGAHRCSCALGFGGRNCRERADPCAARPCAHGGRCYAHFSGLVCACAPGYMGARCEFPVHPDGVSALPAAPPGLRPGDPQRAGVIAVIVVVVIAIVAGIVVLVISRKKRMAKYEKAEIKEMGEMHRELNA
Experiment: FACS, CHO-K1-cyno DLL3 cells, 100 nM antibody
Catalogue of binders with associated MFI
Answer in MFI, number only, no unit symbol.

Consider the worked cases shown below.
Hab014VL1VH2-hFc (scFv, part only; not given: VL-VH linker and human IgG1 Fc, V domains shown, not shown: another chain or arm of the molecule; a dimerising Fc or GST; small tags and cut ends) VL: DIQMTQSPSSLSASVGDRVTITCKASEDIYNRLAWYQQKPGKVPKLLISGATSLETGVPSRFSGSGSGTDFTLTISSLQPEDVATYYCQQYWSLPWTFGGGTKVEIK VH: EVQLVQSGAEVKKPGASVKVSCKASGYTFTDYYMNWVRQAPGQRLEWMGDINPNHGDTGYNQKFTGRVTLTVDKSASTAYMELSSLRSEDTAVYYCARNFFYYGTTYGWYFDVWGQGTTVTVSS    32800
Hab014VL3VH1-hFc (scFv, part only; not given: VL-VH linker and human IgG1 Fc, V domains shown, not shown: another chain or arm of the molecule; a dimerising Fc or GST; small tags and cut ends) VL: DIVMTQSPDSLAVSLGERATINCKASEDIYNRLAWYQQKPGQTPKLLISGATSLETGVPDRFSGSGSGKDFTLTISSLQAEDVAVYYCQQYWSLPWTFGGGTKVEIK VH: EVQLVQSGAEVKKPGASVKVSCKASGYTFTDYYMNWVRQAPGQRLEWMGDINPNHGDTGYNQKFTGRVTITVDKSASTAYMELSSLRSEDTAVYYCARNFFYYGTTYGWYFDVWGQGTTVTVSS    33900
Hab008L1H2a-hFc (scFv, part only; not given: VL-VH linker and human IgG1 Fc, V domains shown, not shown: another chain or arm of the molecule; a dimerising Fc or GST; small tags and cut ends) VL: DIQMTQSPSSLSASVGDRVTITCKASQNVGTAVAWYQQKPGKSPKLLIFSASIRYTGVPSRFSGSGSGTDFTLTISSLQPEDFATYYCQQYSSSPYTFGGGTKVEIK VH: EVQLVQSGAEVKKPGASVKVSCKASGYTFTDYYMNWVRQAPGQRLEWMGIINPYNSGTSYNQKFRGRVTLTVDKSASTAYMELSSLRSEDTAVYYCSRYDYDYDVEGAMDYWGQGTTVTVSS    18600
Hab008L1H5-hFc (scFv, part only; not given: VL-VH linker and human IgG1 Fc, V domains shown, not shown: another chain or arm of the molecule; a dimerising Fc or GST; small tags and cut ends) VL: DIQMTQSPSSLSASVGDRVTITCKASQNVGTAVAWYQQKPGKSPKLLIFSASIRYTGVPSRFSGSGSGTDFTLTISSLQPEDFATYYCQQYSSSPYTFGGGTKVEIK VH: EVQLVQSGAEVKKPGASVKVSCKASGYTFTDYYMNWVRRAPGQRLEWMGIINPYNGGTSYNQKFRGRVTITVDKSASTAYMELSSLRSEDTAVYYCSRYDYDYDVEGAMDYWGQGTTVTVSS    18400

Please look at the following binder next.
[Q] Requested read-out: MFI. Entry: Hab014VL2VH1-hFc (scFv, part only; not given: scFv linker and human IgG1 Fc, V domains shown, not shown: another chain or arm of the molecule; a dimerising Fc or GST; small tags and cut ends) VL: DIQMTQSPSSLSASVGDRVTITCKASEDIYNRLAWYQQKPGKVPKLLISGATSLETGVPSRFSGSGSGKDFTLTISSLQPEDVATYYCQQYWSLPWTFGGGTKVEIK VH: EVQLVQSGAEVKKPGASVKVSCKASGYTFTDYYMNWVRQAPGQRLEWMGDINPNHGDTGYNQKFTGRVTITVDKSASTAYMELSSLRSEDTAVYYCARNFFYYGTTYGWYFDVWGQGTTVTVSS
[A] 33000
